Exercise: for every item that follows, state its recorded CC50.
Number in µM, nothing else.

Query :: Test system OVCAR-3; read-out CC50; what value for C=C1C(=O)O[C@H]2[C@H]1CC/C(COC(=O)N1CCN(C)CC1)=C\CC[C@@]1(C)O[C@@H]21 ?
Result :: 42.3

Query :: Test system OVCAR-3; read-out CC50; what value for C=C1C(=O)O[C@H]2[C@H]1CC/C(COC(=O)CCC(=O)N1CCC(C)CC1)=C\CC[C@@]1(C)O[C@@H]21 ?
Result :: 32.5

Query :: Test system OVCAR-3; read-out CC50; what value for C=C1C(=O)O[C@H]2[C@H]1CC/C(COC(=O)N1CCC(F)(F)CC1)=C\CC[C@@]1(C)O[C@@H]21 ?
Result :: 9.62

Query :: Test system OVCAR-3; read-out CC50; what value for C=C1C(=O)O[C@H]2[C@H]1CC/C(COC(=O)NC)=C\CC[C@@]1(C)O[C@@H]21 ?
Result :: 34.3

Query :: Test system OVCAR-3; read-out CC50; what value for C=C1C(=O)O[C@H]2[C@H]1CC/C(COC(=O)NCCO)=C\CC[C@@]1(C)O[C@@H]21 ?
Result :: 47.3
